- assayMethodText: Mouse pharmacokinetics/metabolism study
- Assay type: in vivo, C57BL/6J mice
- measurementContext: acid metabolite PV-623 after PV-3212 10 mg/kg IP, 0.5 hr
Where a SMILES comes first, the peptide text is derived from it. [ ]: non-standard residue; d: D form. Tic = O=C(O)[C@@H]1Cc2ccccc2CN1; Chg = N[C@H](C(=O)O)C1CCCCC1
measuredQuantity: Mean Plasma Concentration 0.5 hr
Please don't drop the unit; write it after the number.

Value of measured Mean Plasma Concentration 0.5 hr for the entry CC(=O)N[C@H](C(=O)N[C@H](C(=O)N[C@@H](CCCNC(=N)N)C(=O)N1Cc2ccccc2C[C@H]1C(=O)N[C@@H](Cc1ccccc1)C(=O)O)C1CCCCC1)C(C)C [PV-623, Ac-V-(Chg)-R-(Tic)-F—OH] (Ac-V[Chg]R[Tic]F-OH) : 3.57 ng/mL

* * *

- testedOn: HLA-DRB1*15:01 (Homo sapiens, UniProt P01903+P01911)
- Construct: endogenous in cells; host or cells: EBV homozygous cell lines (human)
- assayMethodText: HLA II binding assay (competitive, biotinylated reference peptide)
- measurementContext: Table 2, DRB1*15:01 binding; unit inferred, nM; read-out: Avg IC50
Where a SMILES comes first, the peptide text is derived from it. [ ]: non-standard residue; d: D form. Oic = O=C(O)[C@@H]1C[C@@H]2CCCC[C@@H]2N1; Tic = O=C(O)[C@@H]1Cc2ccccc2CN1; Chg = N[C@H](C(=O)O)C1CCCCC1; Nva = CCC[C@H](N)C(=O)O
# IC50 per entry
Dear colleague, please return just the value in nM, with no unit written.

Past entries and their recorded results:
CC(=O)N[C@H](C(=O)N[C@H](C(=O)N[C@@H](CCCNC(=N)N)C(=O)N1[C@H](C(=O)N[C@@H](Cc2ccccc2)C(N)=O)C[C@@H]2CCCC[C@@H]21)C1CCCCC1)C(C)C [PV-589, reference compound] (Ac-V[Chg]R[Oic]F-NH2) | 474
CCC[C@H](NC(C)=O)C(=O)N[C@H](C(=O)N[C@@H](CCCNC(=N)N)C(=O)N1Cc2ccccc2C[C@H]1C(=O)N[C@@H](Cc1ccccc1)C(N)=O)C1CCCCC1 [PV-591] (Ac-[Nva][Chg]R[Tic]F-NH2) | 4.1

Value of measured IC50 for the entry CC(=O)N[C@H](C(=O)N[C@H](C(=O)N[C@@H](Cc1c[nH]cn1)C(=O)N1Cc2ccccc2C[C@H]1C(=O)N[C@@H](Cc1ccccc1)C(N)=O)C1CCCCC1)C(C)C [PV-580] (Ac-V[Chg]H[Tic]F-NH2) : 28

* * *

- assayMethodText: Mouse pharmacokinetics/metabolism study
- Format: in vivo, C57BL/6J mice
- measurementContext: mouse, in vivo, ip, 10 mg/kg
Where a SMILES comes first, the peptide text is derived from it. [ ]: non-standard residue; d: D form. The star is where a group is joined. Tic = O=C(O)[C@@H]1Cc2ccccc2CN1; Chg = N[C@H](C(=O)O)C1CCCCC1; NHCH2CH2OMe = COCCN*
measuredQuantity: Mean Plasma Concentration 0.25 hr (ng/mL)
Dear colleague, please return just the value in ng/mL, with no unit written.

Value of measured Mean Plasma Concentration 0.25 hr for the entry COCCNC(=O)[C@H](Cc1ccccc1)NC(=O)[C@@H]1Cc2ccccc2CN1C(=O)[C@H](CCCNC(=N)N)NC(=O)[C@@H](NC(=O)[C@@H](NC(C)=O)C(C)C)C1CCCCC1 [PV-3212, Ac-V-(Chg)-R-(Tic)-F—NH(CH2CH2O)1CH3] (Ac-V[Chg]R[Tic]F-NHCH2CH2OMe) : 741

* * *

- assayMethodText: Mouse pharmacokinetics/metabolism study
- Format: in vivo, C57BL/6J mice
- measurementContext: C57BL/6J, mouse, plasma, ip, 10 mg/kg; parent, text b45, 0.5 hr; read-out: plasma concentration at 0.5 hr
Where a SMILES comes first, the peptide text is derived from it. [ ]: non-standard residue; d: D form. Tic = O=C(O)[C@@H]1Cc2ccccc2CN1; Chg = N[C@H](C(=O)O)C1CCCCC1
measuredQuantity: level at 0.5 h (ng/mL)
Dear colleague, please return just the value in ng/mL, with no unit written.

Value of measured level at 0.5 h for the entry CC(=O)N[C@H](C(=O)N[C@H](C(=O)N[C@@H](CCCNC(=N)N)C(=O)N1Cc2ccccc2C[C@H]1C(=O)N[C@@H](Cc1ccccc1)C(N)=O)C1CCCCC1)C(C)C [PV-267, Ac-V-(Chg)-R-(Tic)-F—NH2] (Ac-V[Chg]R[Tic]F-NH2) : 91.5

* * *

- assayMethodText: Mouse pharmacokinetics/metabolism study
- Type: in vivo, C57BL/6J mice
- measurementContext: C57BL/6J, mouse, in vivo, ip, 10 mg/kg
Where a SMILES comes first, the peptide text is derived from it. [ ]: non-standard residue; d: D form. The star is where a group is joined. Tic = O=C(O)[C@@H]1Cc2ccccc2CN1; Chg = N[C@H](C(=O)O)C1CCCCC1; NHCH2CH2OMe = COCCN*
measuredQuantity: half-life (h)
Dear colleague, please return just the value in h, with no unit written.

Value of measured half-life for the entry COCCNC(=O)[C@H](Cc1ccccc1)NC(=O)[C@@H]1Cc2ccccc2CN1C(=O)[C@H](CCCNC(=N)N)NC(=O)[C@@H](NC(=O)[C@@H](NC(C)=O)C(C)C)C1CCCCC1 [PV-3212, Ac-V-(Chg)-R-(Tic)-F—NH(CH2CH2O)1CH3] (Ac-V[Chg]R[Tic]F-NHCH2CH2OMe) : 3.23

* * *

- assayMethodText: Mouse pharmacokinetics/metabolism study
- Assay type: in vivo, C57BL/6J mice
- measurementContext: acid metabolite PV-623 after PV-3212 10 mg/kg IP, 0.25 hr
Where a SMILES comes first, the peptide text is derived from it. [ ]: non-standard residue; d: D form. Tic = O=C(O)[C@@H]1Cc2ccccc2CN1; Chg = N[C@H](C(=O)O)C1CCCCC1
measuredQuantity: Mean Plasma Concentration 0.25 hr (ng/mL)
Dear colleague, please return just the value in ng/mL, with no unit written.

Value of measured Mean Plasma Concentration 0.25 hr for the entry CC(=O)N[C@H](C(=O)N[C@H](C(=O)N[C@@H](CCCNC(=N)N)C(=O)N1Cc2ccccc2C[C@H]1C(=O)N[C@@H](Cc1ccccc1)C(=O)O)C1CCCCC1)C(C)C [PV-623, Ac-V-(Chg)-R-(Tic)-F—OH] (Ac-V[Chg]R[Tic]F-OH) : 8.54

* * *

- assayMethodText: Mouse pharmacokinetics/metabolism study
- Assay type: in vivo, C57BL/6J mice
- measurementContext: C57BL/6J, mouse, plasma, ip, 10 mg/kg; parent, text b45, 0.25 hr; read-out: plasma concentration at 0.25 hr
Where a SMILES comes first, the peptide text is derived from it. [ ]: non-standard residue; d: D form. Tic = O=C(O)[C@@H]1Cc2ccccc2CN1; Chg = N[C@H](C(=O)O)C1CCCCC1
measuredQuantity: level at 0.25 h (ng/mL)
Dear colleague, please return just the value in ng/mL, with no unit written.

Value of measured level at 0.25 h for the entry CC(=O)N[C@H](C(=O)N[C@H](C(=O)N[C@@H](CCCNC(=N)N)C(=O)N1Cc2ccccc2C[C@H]1C(=O)N[C@@H](Cc1ccccc1)C(N)=O)C1CCCCC1)C(C)C [PV-267, Ac-V-(Chg)-R-(Tic)-F—NH2] (Ac-V[Chg]R[Tic]F-NH2) : 275

* * *

- assayMethodText: Mouse pharmacokinetics/metabolism study
- Type: in vivo, C57BL/6J mice
- measurementContext: C57BL/6J, mouse, in vivo, ip, 10 mg/kg
Where a SMILES comes first, the peptide text is derived from it. [ ]: non-standard residue; d: D form. The star is where a group is joined. Tic = O=C(O)[C@@H]1Cc2ccccc2CN1; Chg = N[C@H](C(=O)O)C1CCCCC1; NHCH2CH2OMe = COCCN*
measuredQuantity: level at 0.5 h

Value of measured level at 0.5 h for the entry COCCNC(=O)[C@H](Cc1ccccc1)NC(=O)[C@@H]1Cc2ccccc2CN1C(=O)[C@H](CCCNC(=N)N)NC(=O)[C@@H](NC(=O)[C@@H](NC(C)=O)C(C)C)C1CCCCC1 [PV-3212, Ac-V-(Chg)-R-(Tic)-F—NH(CH2CH2O)1CH3] (Ac-V[Chg]R[Tic]F-NHCH2CH2OMe) : 195 ng/mL

* * *

- assayMethodText: Mouse pharmacokinetics/metabolism study
- Format: in vivo, C57BL/6J mice
- measurementContext: C57BL/6J, mouse, in vivo, ip, 10 mg/kg
Where a SMILES comes first, the peptide text is derived from it. [ ]: non-standard residue; d: D form. The star is where a group is joined. Tic = O=C(O)[C@@H]1Cc2ccccc2CN1; Chg = N[C@H](C(=O)O)C1CCCCC1; NHCH2CH2OMe = COCCN*
measuredQuantity: Cmax (ng/mL)
Dear colleague, please return just the value in ng/mL, with no unit written.

Value of measured Cmax for the entry COCCNC(=O)[C@H](Cc1ccccc1)NC(=O)[C@@H]1Cc2ccccc2CN1C(=O)[C@H](CCCNC(=N)N)NC(=O)[C@@H](NC(=O)[C@@H](NC(C)=O)C(C)C)C1CCCCC1 [PV-3212, Ac-V-(Chg)-R-(Tic)-F—NH(CH2CH2O)1CH3] (Ac-V[Chg]R[Tic]F-NHCH2CH2OMe) : 741
